The values you see were collected from paper PMC9655037.

Test: Tissue distribution of TET after a single i.t. administration in normal and LPS-treated mice
Conditions: BALB/c, mouse, intestine, inhaled or intranasal, 15 mg/kg, MRT, normal mice; 15 mg/kg i.t.
value kind: MRT (h)
Numbers only, in h.

Ask | Which value of MRT has been reported for COc1ccc2cc1Oc1ccc(cc1)C[C@H]1c3cc(c(OC)cc3CCN1C)Oc1c(OC)c(OC)cc3c1[C@H](C2)N(C)CC3 [TET, Tetrandrine] in the records?
Reply | 50.5

###

Assay: Tissue distribution of TET after a single i.t. administration in normal and LPS-treated mice
Conditions: BALB/c, mouse, kidney, inhaled or intranasal, 15 mg/kg, AUC(0-∞), LPS-treated mice; 15 mg/kg i.t.
value kind: AUC(0-inf)

Ask | I would be grateful if you could share the reported AUC(0-inf) for COc1ccc2cc1Oc1ccc(cc1)C[C@H]1c3cc(c(OC)cc3CCN1C)Oc1c(OC)c(OC)cc3c1[C@H](C2)N(C)CC3 .
Reply | 11000 µg·h/mL
